cytotoxicity at 10 µM values, listed per item
assay: Toxicity liver stage against HepG2, at 10uM; assay type: cell-based; design: test concentration 10 uM, cell line HepG2-A16-CD81EGFP; conditions: human, HepG2-A16-CD81EGFP cells; read-out: INHIBITION
Respond with the bare value in %.

Solved cases below.
| compound | result_unit | result_value |
| --- | --- | --- |
| O=C(N1CCCC1)N1CCn2c(Cn3cccn3)cnc2C1 | % | -69.1 |
| COCCN(Cc1cccnc1)S(=O)(=O)c1cc(C)ccc1F | % | 10.3 |
| CN1C[C@H]2CCN(C(=O)NC3CCCC3)CC[C@H]2S1(=O)=O | % | 2.66 |
| COc1ccc(CCNC2CCCN(Cc3noc(C)n3)C2)cc1 (configuration not stated) | % | -5.98 |
| CC(C)c1nc(-c2cc(C(=O)O)c3ccccn23)cs1 | % | 7.43 |

Sample N#Cc1cccc(N2CCCC3(C2)CN(c2ncccn2)CCO3)n1 (configuration not stated) ; cytotoxicity at 10 µM observed: 17.8

The compound COc1ccc(C(=O)O)c(OCC(=O)NC(C)c2ccccc2)c1 (configuration not stated) showed cytotoxicity at 10 µM equal to 1.97
